# MEASURED_ON: FGF-2 (Homo sapiens, UniProt P09038)
# Sequence (P09038 143-288, species assumed): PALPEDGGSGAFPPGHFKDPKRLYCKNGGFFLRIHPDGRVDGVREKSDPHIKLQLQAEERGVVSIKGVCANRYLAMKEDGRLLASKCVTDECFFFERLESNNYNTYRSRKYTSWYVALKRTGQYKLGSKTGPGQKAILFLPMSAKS
# METHOD_DESCRIPTION: Growth factor binding assay (SPR solution affinity), FGF-2
# EXPERIMENTAL_PARAMETERS: SPR, HBS-EP buffer containing 0.3 M NaCl, 25° C.; read-out: Kd FGF-2
pKd: −log10 of the molar value.
Assign satisfied to entries whose pKd meets or exceeds 6; assign not satisfied to the rest.

Sample answers from the record:
{"columns": ["MOLECULE", "LABEL"],
 "data": [
  ["CC(C)CCC[C@@H](C)[C@H]1CC[C@H]2[C@@H]3CC[C@H]4C[C@@H](O[C@H]5O[C@H](COS(=O)(=O)O)[C@@H](OS(=O)(=O)O)[C@H](OS(=O)(=O)O)[C@@H]5O[C@H]5O[C@H](COS(=O)(=O)O)[C@@H](OS(=O)(=O)O)[C@H](OS(=O)(=O)O)[C@@H]5OS(=O)(=O)O)CC[C@]4(C)[C@H]3CC[C@]12C", "not satisfied"],
  ["CC(C)CCCC(C)C1CCC2C3CCC4CC(OCC(=O)NC5OC(COS(=O)(=O)O)C(OC6OC(COS(=O)(=O)O)C(OC7OC(COS(=O)(=O)O)C(OS(=O)(=O)O)C(OS(=O)(=O)O)C7OS(=O)(=O)O)C(OS(=O)(=O)O)C6OS(=O)(=O)O)C(OS(=O)(=O)O)C5OS(=O)(=O)O)CCC4(C)C3CCC12C (centres unmarked)", "satisfied"],
  ["CCCCCCCCCCCCCCCCCC(=O)NCCCO[C@@H]1O[C@H](COS(=O)(=O)[O-])[C@@H](O[C@H]2O[C@H](COS(=O)(=O)[O-])[C@@H](O[C@H]3O[C@H](COS(=O)(=O)[O-])[C@@H](OS(=O)(=O)[O-])[C@H](OS(=O)(=O)[O-])[C@H]3OS(=O)(=O)[O-])[C@H](OS(=O)(=O)[O-])[C@H]2OS(=O)(=O)[O-])[C@H](OS(=O)(=O)[O-])[C@H]1OS(=O)(=O)[O-].[Na+].[Na+].[Na+].[Na+].[Na+].[Na+].[Na+].[Na+].[Na+].[Na+]", "satisfied"],
  ["CC(C)CCC[C@@H](C)[C@H]1CC[C@H]2[C@@H]3CCC4CC(O[C@H]5O[C@H](COS(=O)(=O)[O-])[C@@H](OS(=O)(=O)[O-])[C@H](O[C@H]6O[C@H](COS(=O)(=O)[O-])[C@@H](OS(=O)(=O)[O-])[C@H](O[C@H]7O[C@H](COS(=O)(=O)[O-])[C@@H](OS(=O)(=O)[O-])[C@H](OS(=O)(=O)[O-])[C@@H]7OS(=O)(=O)[O-])[C@@H]6OS(=O)(=O)[O-])[C@@H]5OS(=O)(=O)[O-])CC[C@]4(C)[C@H]3CC[C@]12C.[Na+].[Na+].[Na+].[Na+].[Na+].[Na+].[Na+].[Na+].[Na+].[Na+] (some centres unmarked)", "satisfied"]
]}

API: the following record is the query input.
Does the molecule CCCCCCCCCCCCCCCCCC(=O)NCCCOC1OC(COS(=O)(=O)O)C(OS(=O)(=O)O)C(OS(=O)(=O)O)C1OC1OC(COS(=O)(=O)O)C(OS(=O)(=O)O)C(OC2OC(COS(=O)(=O)O)C(OS(=O)(=O)O)C(OC3OC(COS(=O)(=O)O)C(OS(=O)(=O)O)C(OS(=O)(=O)O)C3OS(=O)(=O)O)C2OS(=O)(=O)O)C1OS(=O)(=O)O (centres unmarked) have recorded pKd that is 6 or more?
satisfied

----------
Measured pKd, listed per entry for reference.
# MEASURED_ON: FGF-1 (Homo sapiens, UniProt P05230)
# Sequence (P05230 whole entry, species assumed): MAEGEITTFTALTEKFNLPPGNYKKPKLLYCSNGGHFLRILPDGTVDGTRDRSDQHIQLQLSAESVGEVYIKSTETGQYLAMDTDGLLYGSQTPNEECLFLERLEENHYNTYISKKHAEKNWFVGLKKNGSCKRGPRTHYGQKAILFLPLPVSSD
# METHOD_DESCRIPTION: Growth factor binding assay (SPR solution affinity), FGF-1
# EXPERIMENTAL_PARAMETERS: SPR, HBS-EP buffer, 25° C.; read-out: Kd FGF-1
In simple prose, pKd is minus the logarithm base ten of a concentration in moles per litre.

# annotated cases, reported pKd shown
{"columns": ["MOLECULE", "pKd"],
 "data": [
  ["CC(C)CCCC(C)C1CCC2C3CC=C4CC(OC5OC(COS(=O)(=O)O)C(OS(=O)(=O)O)C(OS(=O)(=O)O)C5OC5OC(COS(=O)(=O)O)C(OS(=O)(=O)O)C(OC6OC(COS(=O)(=O)O)C(OS(=O)(=O)O)C(OC7OC(COS(=O)(=O)O)C(OS(=O)(=O)O)C(OS(=O)(=O)O)C7OS(=O)(=O)O)C6OS(=O)(=O)O)C5OS(=O)(=O)O)CCC4(C)C3CCC12C (stereo not drawn) [Compound 17]", 8.49],
  ["CC(C)CCCC(C)C1CCC2C3CCC4CC(OC(C(OS(=O)(=O)[O-])C(OS(=O)(=O)O)C(OC5OC(COS(=O)(=O)O)C(OC6OC(COS(=O)(=O)O)C(OC7OC(COS(=O)(=O)O)C(OS(=O)(=O)O)C(OS(=O)(=O)O)C7OS(=O)(=O)O)C(OS(=O)(=O)O)C6OS(=O)(=O)O)C(OS(=O)(=O)O)C5OS(=O)(=O)O)C(COS(=O)(=O)O)OS(=O)(=O)O)[n+]5ccccc5)CCC4(C)C3CCC12C (stereo not drawn) [Compound 140]", 8.89],
  ["CC(C)CCC[C@@H](C)[C@H]1CC[C@H]2[C@@H]3CC[C@H]4C[C@@H](O[C@H]5O[C@H](COS(=O)(=O)O)[C@@H](OS(=O)(=O)O)[C@H](OS(=O)(=O)O)[C@@H]5OS(=O)(=O)O)CC[C@]4(C)[C@H]3CC[C@]12C [Compound 79]", 5.44],
  ["O=S(=O)(O)OCC1OC(OC2C(OCCCCCCCCCCCCn3cc(-c4ccccc4)nn3)OC(COS(=O)(=O)O)C(OS(=O)(=O)O)C2OS(=O)(=O)O)C(OS(=O)(=O)O)C(OC2OC(COS(=O)(=O)O)C(OS(=O)(=O)O)C(OC3OC(COS(=O)(=O)O)C(OS(=O)(=O)O)C(OC4OC(COS(=O)(=O)O)C(OS(=O)(=O)O)C(OS(=O)(=O)O)C4OS(=O)(=O)O)C3OS(=O)(=O)O)C2OS(=O)(=O)O)C1OS(=O)(=O)O (stereo not drawn) [Compound 8]", 8.64]
]}

Tell me the measured pKd of CC(C)CCC[C@@H](C)[C@H]1CC[C@H]2[C@@H]3CC[C@H]4C[C@@H](OCc5cn([C@@H]6O[C@H](COS(=O)(=O)O)[C@@H](O[C@H]7O[C@H](COS(=O)(=O)O)[C@@H](OS(=O)(=O)O)[C@H](OS(=O)(=O)O)[C@H]7OS(=O)(=O)O)[C@H](OS(=O)(=O)O)[C@H]6OS(=O)(=O)O)nn5)CC[C@]4(C)[C@H]3CC[C@]12C [Compound 97] , please.
6.08

// returns reported pKd for input O=S(=O)(O)OCC1OC(OC2C(OCCCCCCCCCCCCn3cc(-c4cccc5ccccc45)nn3)OC(COS(=O)(=O)O)C(OS(=O)(=O)O)C2OS(=O)(=O)O)C(OS(=O)(=O)O)C(OC2OC(COS(=O)(=O)O)C(OS(=O)(=O)O)C(OC3OC(COS(=O)(=O)O)C(OS(=O)(=O)O)C(OC4OC(COS(=O)(=O)O)C(OS(=O)(=O)O)C(OS(=O)(=O)O)C4OS(=O)(=O)O)C3OS(=O)(=O)O)C2OS(=O)(=O)O)C1OS(=O)(=O)O (stereo not drawn) [Compound 11]
9.72

----------
# MEASURED_ON: VEGF (Homo sapiens, UniProt P15692)
# Sequence (P15692 207-395): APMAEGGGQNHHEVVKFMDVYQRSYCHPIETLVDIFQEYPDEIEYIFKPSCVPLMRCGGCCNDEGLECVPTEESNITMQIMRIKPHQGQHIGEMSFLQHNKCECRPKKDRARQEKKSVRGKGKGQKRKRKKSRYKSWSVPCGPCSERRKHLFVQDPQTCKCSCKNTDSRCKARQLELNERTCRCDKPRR
# METHOD_DESCRIPTION: Growth factor binding assay (SPR solution affinity), VEGF
# EXPERIMENTAL_PARAMETERS: HBS-EP buffer, 25° C.
PROPERTY_NAME: Kd
Write the numeric value and append its unit.

Recorded Kd, per entry:
{"columns": ["MOLECULE", "RESULT"],
 "data": [
  ["CCCCCCCCCCCCOC1OC(COS(=O)(=O)O)C(OS(=O)(=O)O)C(OS(=O)(=O)O)C1OC1OC(COS(=O)(=O)O)C(OS(=O)(=O)O)C(OC2OC(COS(=O)(=O)O)C(OS(=O)(=O)O)C(OC3OC(COS(=O)(=O)O)C(OS(=O)(=O)O)C(OC4OC(COS(=O)(=O)O)C(OS(=O)(=O)O)C(OS(=O)(=O)O)C4OS(=O)(=O)O)C3OS(=O)(=O)O)C2OS(=O)(=O)O)C1OS(=O)(=O)O (stereo not shown) [Compound 4]", "0.012 µM"],
  ["O=S(=O)(O)OCC1OC(OC2C(OCCCCCCCCCCCCn3cc(-c4cccc5ccccc45)nn3)OC(COS(=O)(=O)O)C(OS(=O)(=O)O)C2OS(=O)(=O)O)C(OS(=O)(=O)O)C(OC2OC(COS(=O)(=O)O)C(OS(=O)(=O)O)C(OC3OC(COS(=O)(=O)O)C(OS(=O)(=O)O)C(OC4OC(COS(=O)(=O)O)C(OS(=O)(=O)O)C(OS(=O)(=O)O)C4OS(=O)(=O)O)C3OS(=O)(=O)O)C2OS(=O)(=O)O)C1OS(=O)(=O)O (stereo not shown) [Compound 11]", "0.00079 µM"],
  ["CC(C)CCCC(C)C1CCC2C3CCC4CC(OC5OC(COS(=O)(=O)O)C(OS(=O)(=O)O)C(OS(=O)(=O)O)C5OC5OC(COS(=O)(=O)O)C(OS(=O)(=O)O)C(OC6OC(COS(=O)(=O)O)C(OS(=O)(=O)O)C(OC7OC(COS(=O)(=O)O)C(OS(=O)(=O)O)C(OS(=O)(=O)O)C7OS(=O)(=O)O)C6OS(=O)(=O)O)C5OS(=O)(=O)O)CCC4(C)C3CCC12C (stereo not shown) [Compound 20]", "0.022 µM"]
]}

# input for lookup
Field: Kd (VEGF (Homo sapiens, UniProt P15692)). Entry: CC(C)CCC[C@@H](C)[C@H]1CC[C@H]2[C@@H]3CC[C@H]4C[C@@H](O[C@H]5O[C@H](COS(=O)(=O)O)[C@@H](OS(=O)(=O)O)[C@H](OS(=O)(=O)O)[C@@H]5OS(=O)(=O)O)CC[C@]4(C)[C@H]3CC[C@]12C [Compound 79]
3 µM

Data provenance is patent US20150065440A1.
